The values you see were collected from ChEMBL document CHEMBL1155084.

Let's look at some molecules and their measured pIC50.
# System: Blood
# assayProcedure: Inhibition of TNFalpha release in human whole blood
# Type: functional, tissue-based
pIC50: −log10 of the molar value.
measure: pIC50

INSERT INTO assay_data (smilesstr, measure, testresult) VALUES
  ('CSc1nc(-c2cccc(C(F)(F)F)c2)c(-c2ccnc(F)c2)[nH]1', 'pIC50', 4.35),
  ('CSc1nc(-c2ccc(F)cc2)c(-c2ccnc(NCc3ccncc3)c2)[nH]1', 'pIC50', 5.21),
  ('CCSc1nc(-c2cccc(C(F)(F)F)c2)c(-c2ccnc(F)c2)[nH]1', 'pIC50', 4.15),
  ('CSc1nc(-c2cccc(C(F)(F)F)c2)c(-c2ccnc(NCc3ccccc3)c2)[nH]1', 'pIC50', 4.42);
